Biological target: Human CXCR3 (N-delta 4) (Homo sapiens, UniProt P49682)
Construct: CD8 leader (N); Flag tag; expressed in transfected cells; membranes prepared
Test: Human CXCR3 (N-delta 4) scintillation proximity assay (SPA), [125I] IP-10 binding to Ba/F3-hCXCR3 membranes
Conditions: IC50 rating; 25 pM [125I] IP-10, membranes of Ba/F3 cells expressing human CXCR3 (N-delta 4)
pIC50: −log10 of the molar value.
REPORTED ENDPOINT: pIC50

The cases that follow already have their pIC50 on record.
Let me know recorded pIC50 for `CC[C@H]1CN(c2nc(N)c(C(=O)NCCO)nc2Cl)CCN1C1CCN(Cc2ccc(C#N)nc2)CC1` , thanks.
< 7.00

Let me know recorded pIC50 for `CC[C@H]1CN(c2nc(N)c(C(N)=O)nc2Cl)CCN1C1CCN(C(=O)c2ccc(-n3cncn3)nc2)CC1` , thanks.
< 7.00

Let me know recorded pIC50 for `CC[C@H]1CN(c2ncc(C(=O)NCCO)nc2C)CCN1C1CCN(C(=O)c2ccc(Cl)nc2N)CC1` , thanks.
> 7.60

Let me know recorded pIC50 for `CC[C@H]1CN(c2nc(N)c(C(=O)NN)nc2Cl)CCN1C1CCN(C(=O)c2c(C)noc2C)CC1` , thanks.
< 7.00

Let me know recorded pIC50 for `CC[C@H]1CN(c2nc(N)c(C(=O)O)nc2Cl)CCN1C1CCN(C(=O)c2ccc(Cl)nc2N)CC1` , thanks.
< 7.00

More entries:
Let me know recorded pIC50 for `CC[C@H]1CN(c2nc(N)c(C(=O)NCCO)nc2Cl)CCN1C1CCN(C(=O)c2ccc(C(F)(F)F)nc2Cl)CC1` , thanks.
7.00 to 7.60

Let me know recorded pIC50 for `CC[C@H]1CN(c2nc(N)c(C(=O)Nc3ncccc3O)nc2Cl)CCN1C1CCN(C(=O)c2ccc(Cl)nc2N)CC1` , thanks.
< 7.00

====

Molecular target: Human CXCR3 (N-delta 4) (Homo sapiens)
Construct: CD8 leader (N); Flag tag; expressed in transfected cells; membranes prepared
Experiment: Human CXCR3 (N-delta 4) scintillation proximity assay (SPA), [125I] IP-10 binding to Ba/F3-hCXCR3 membranes
Settings: IC50 rating; 25 pM [125I] IP-10, membranes of Ba/F3 cells expressing human CXCR3 (N-delta 4)
pIC50: −log10 of the molar value.
REPORTED ENDPOINT: pIC50

Find the measured pIC50 of CC[C@H]1CN(c2nc(N)c(C(=O)NC)nc2Cl)CCN1C1CCN(C(=O)c2ccnc(Cl)c2)CC1 [compound 110] with Human CXCR3 (N-delta 4) (Homo sapiens) as test system.
< 7.00

Find the measured pIC50 of CC[C@H]1CN(c2nc(N)c(C(=O)Nc3cc(C)[nH]n3)nc2Cl)CCN1C1CCN(C(=O)c2ccc(Cl)nc2N)CC1 [compound 132] with Human CXCR3 (N-delta 4) (Homo sapiens) as test system.
7.00 to 7.60

Find the measured pIC50 of CC[C@H]1CN(c2nc(N)c(C(=O)Nc3nccc(=O)[nH]3)nc2Cl)CCN1C1CCN(C(=O)c2ccc(Cl)nc2N)CC1 [compound 83] with Human CXCR3 (N-delta 4) (Homo sapiens) as test system.
< 7.00

Find the measured pIC50 of CC[C@H]1CN(c2nc(N)c(C(=O)NCCO)nc2Cl)CCN1C1CCN(C(=O)c2ccc(C(F)(F)F)nc2N)CC1 [compound 63] with Human CXCR3 (N-delta 4) (Homo sapiens) as test system.
7.00 to 7.60

Find the measured pIC50 of CC[C@H]1CN(c2nc(N)c(C(N)=O)nc2Cl)CCN1C1CCN(Cc2ccc(Cl)n3ccnc23)CC1 [compound 75] with Human CXCR3 (N-delta 4) (Homo sapiens) as test system.
< 7.00

Find the measured pIC50 of CC[C@H]1CN(c2nc(N)c(C(=O)NNC(=O)C3CC3)nc2Cl)CCN1C1CCN(C(=O)c2ccc(Cl)nc2N)CC1 [compound 86] with Human CXCR3 (N-delta 4) (Homo sapiens) as test system.
< 7.00

More entries:
Find the measured pIC50 of CC[C@H]1CN(c2nc(N)c(C(=O)Nc3ccc(Cl)cc3)nc2Cl)CCN1C1CCN(C(=O)c2ccc(Cl)nc2N)CC1 [compound 149] with Human CXCR3 (N-delta 4) (Homo sapiens) as test system.
> 7.60

====

Target: Human CXCR3 (N-delta 4) (Homo sapiens, UniProt P49682)
Construct: CD8 leader (N); Flag tag; expressed in transfected cells; membranes prepared
Experiment: Human CXCR3 (N-delta 4) scintillation proximity assay (SPA), [125I] IP-10 binding to Ba/F3-hCXCR3 membranes
Settings: IC50 rating; 25 pM [125I] IP-10, membranes of Ba/F3 cells expressing human CXCR3 (N-delta 4)
pIC50: −log10 of the molar value.
pIC50 by entry:

The cases that follow already have their pIC50 on record.
Let me know recorded pIC50 for CC[C@H]1CN(c2nc(N)c(C(=O)NC3CCC(O)CC3)nc2Cl)CCN1C1CCN(C(=O)c2ccc(Cl)nc2N)CC1 (stereo partly shown) [compound 93] , thanks.
< 7.00

Let me know recorded pIC50 for CC[C@H]1CN(c2ncc(C(=O)NC3CCC3)nc2C(F)(F)F)CCN1C1CCN(C(=O)c2ccc(Cl)nc2N)CC1 [compound 181] , thanks.
> 7.60

Let me know recorded pIC50 for CC[C@H]1CN(c2nc(N)c(C(=O)NC3COCC3O)nc2Cl)CCN1C1CCN(C(=O)c2ccc(Cl)nc2N)CC1 (stereo partly shown) [compound 61] , thanks.
7.00 to 7.60

Read the next record carefully.
Let me know recorded pIC50 for CC[C@H]1CN(c2nc(N)c(C(=O)NC3CCOC3)nc2Cl)CCN1C1CCN(C(=O)c2ccc(Cl)nc2N)CC1 (stereo partly shown) [compound 51] , thanks.
7.00 to 7.60

====

Biological target: Human CXCR3 (N-delta 4) (Homo sapiens, UniProt P49682)
Construct: CD8 leader (N); Flag tag; expressed in transfected cells; membranes prepared
Sequence (P49682 5-368 limits assumed): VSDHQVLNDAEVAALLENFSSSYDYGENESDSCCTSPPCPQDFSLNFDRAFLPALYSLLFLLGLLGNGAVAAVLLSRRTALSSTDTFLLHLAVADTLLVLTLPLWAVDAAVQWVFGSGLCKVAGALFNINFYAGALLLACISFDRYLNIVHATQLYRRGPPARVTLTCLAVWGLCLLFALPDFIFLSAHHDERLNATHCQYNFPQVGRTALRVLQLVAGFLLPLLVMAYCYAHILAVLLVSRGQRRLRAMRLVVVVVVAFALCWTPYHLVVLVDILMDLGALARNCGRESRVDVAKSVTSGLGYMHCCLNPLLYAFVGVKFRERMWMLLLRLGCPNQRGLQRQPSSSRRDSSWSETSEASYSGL
Assay: Human CXCR3 (N-delta 4) scintillation proximity assay (SPA), [125I] IP-10 binding to Ba/F3-hCXCR3 membranes
Conditions: IC50 rating; 25 pM [125I] IP-10, membranes of Ba/F3 cells expressing human CXCR3 (N-delta 4)
Source text: The inventive compounds can readily be evaluated to determine activity at The CXCR3 receptors by known methods, such as, for example, Development of Human CXCR3 (N-delta 4) Binding Assay. Cloning and Expression of Human CXCR3 (N-delta 4): The DNA encoding human CXCR3 was cloned by PCR using human genomic DNA (Promega, Madison, Wis.) as a template. […]
pIC50: −log10 of the molar value.
pIC50 by entry:

The cases that follow already have their pIC50 on record.
Let me know recorded pIC50 for `CC[C@H]1CN(c2nc(N)c(C(=O)NC)nc2Cl)CCN1C1CCN(Cc2cc(Cl)nc(Cl)c2)CC1` , thanks.
< 7.00

Let me know recorded pIC50 for `CC[C@H]1CN(c2ncc(C(=O)NC(C)(C)C)nc2C)CCN1C1CCN(C(=O)c2ccc(Cl)nc2N)CC1` , thanks.
> 7.60

Let me know recorded pIC50 for `CC[C@H]1CN(c2nc(N)c(C(=O)NCC(F)(F)F)nc2Cl)CCN1C1CCN(C(=O)c2ccc(Cl)nc2N)CC1` , thanks.
> 7.60

Let me know recorded pIC50 for `CC[C@H]1CN(c2nc(N)c(C(N)=O)nc2C)CCN1C1CCN(C(=O)c2ccc(Cl)nc2N)CC1` , thanks.
> 7.60

Let me know recorded pIC50 for `CCNC(=N)NC(=O)c1nc(Cl)c(N2CCN(C3CCN(C(=O)c4ccc(Cl)nc4N)CC3)[C@@H](CC)C2)nc1N` , thanks.
> 7.60

Let me know recorded pIC50 for `CC[C@H]1CN(c2nc(N)c(C(N)=O)nc2Cl)[C@H](C)CN1C1CCN(C(=O)c2ccc(Cl)nc2N)CC1` , thanks.
> 7.60

More entries:
Let me know recorded pIC50 for `CCNC(=O)c1nc(C)c(N2CCN(C3CCN(C(=O)c4ccc(Cl)nc4N)CC3)[C@@H](CC)C2)nc1N` , thanks.
> 7.60

Let me know recorded pIC50 for `CC[C@H]1CN(c2nc(N)c(C(=O)NCCO)nc2Cl)CCN1C1CCN(C(=O)c2ccc(Cl)nc2N)CC1` , thanks.
> 7.60

Let me know recorded pIC50 for `CC[C@H]1CN(c2nc(N)c(C(=O)NC)nc2Cl)CCN1C1CCN(C(=O)c2ccc(Cl)nc2Cl)CC1` , thanks.
> 7.60

Let me know recorded pIC50 for `CC[C@H]1CN(c2ncc(C(=O)NCCO)nc2C(F)(F)F)CCN1C1CCN(C(=O)c2ccc(Cl)nc2N)CC1` , thanks.
> 7.60

Let me know recorded pIC50 for `CC[C@H]1CN(c2nc(N)c(C(=O)NC3CC3)nc2Cl)CCN1C1CCN(Cc2cc(C)nn2C)CC1` , thanks.
< 7.00
